Record form. Attribute: pIC50. Fill in for each entry.
system: HCT116 colorectal carcinoma; test: In vitro cytotoxicity (CellTiter-Blue), HCT116; assay type: cell-based; settings: Homo sapiens, HCT-116; 72 hours of incubation
Keep in mind that pIC50 stands for -log10 of concentration in molar terms.

Form field pIC50 for item CN(c1ccc2c(ccn2C)c1)c1cc(C(F)(F)F)nc2ccccc12 on HCT116 colorectal carcinoma: 8.48

Test item Cc1cc(N(C)c2ccc3c(ccn3C)c2)c2ccccc2n1 ; HCT116 colorectal carcinoma; reported pIC50 was 8.70

Lab entry: HCT116 colorectal carcinoma assay, molecule COc1cccc2c(N(C)c3ccc4c(c3)c3ccccc3n4C)cc(C)nc12 , pIC50 = 7.67

Form field, pIC50 with HCT116 colorectal carcinoma, item CN(c1ccc2c(ccn2C)c1)c1nc(Cl)nc2ccccc12 : 9.70

----------
For each entry below, report its pIC50 value.
system: HCT116 colorectal carcinoma; assay: In vitro cytotoxicity (CellTiter-Blue), HCT116; type: cell-based; conditions: Homo sapiens, HCT-116; 72 hours of incubation
In simple prose, pIC50 is minus the logarithm base ten of a concentration in moles per litre.

The measured pIC50 that Cc1cc(N(C)c2ccc3c(c2)c2ccccc2n3C)c2ccccc2n1 showed for HCT116 colorectal carcinoma is 10.15

Given the compound CN(c1ccc2c(c1)c1ccccc1n2C)c1cc(Cl)nc2ccccc12 and test system HCT116 colorectal carcinoma, the measured pIC50 is 7.78

Tested on HCT116 colorectal carcinoma: Cc1cc(N(C)c2ccc3c(c2)c2ccccc2n3C)c2cc(N)ccc2n1 . Observed pIC50: 7.61

Fill in: HCT116 colorectal carcinoma pIC50 for Cc1cc(N(C)c2ccc3c(c2)c2cc(N)ccc2n3C)c2ccccc2n1 = 8.54

# lookup: Cc1cc(N(C)c2ccc3c(c2)c2ccccc2n3C)c2cccc(O)c2n1 on HCT116 colorectal carcinoma, pIC50 = 7.30

The reported pIC50 value, HCT116 colorectal carcinoma, for CN(c1ccc2c(ccn2C)c1)c1cc(C#N)nc2ccccc12 reads 9.14

Query CN(c1ccc2c(c1)c1ccccc1n2C)c1nc(Cl)nc2ccccc12 on HCT116 colorectal carcinoma; pIC50 returned: 8.97

Let me check: Cc1nc(N(C)c2ccc3c(c2)c2ccccc2n3C)c2ccccc2n1 , system HCT116 colorectal carcinoma, measured pIC50 is 8.62

Form field pIC50 for item CN(c1ccc2c(c1)c1ccccc1n2C)c1cc(C#N)nc2ccccc12 on HCT116 colorectal carcinoma: 7.92

----------
test system: JIM-T1 Trastuzumab-DM1 resistant mammal carcinoma; assay: In vitro cytotoxicity (CellTiter-Blue), JIM-T1; assay type: cell-based; conditions: Homo sapiens, JIMT-1; 72 hours of incubation
Assign IC50 to each entry below.
Report only the number, with the unit nM understood.

Query Cc1cc(N(C)c2ccc3c(c2)c2ccccc2n3C)c2ccccc2n1 [Compound 1] yields IC50 of 0.36

Consider CN(c1ccc2c(ccn2C)c1)c1nc(Cl)nc2ccccc12 [Compound 21] . Its measured IC50 is 0.52

----------
READOUT_NAME: melting point

Given item CCn1c2ccccc2c2cc(N(C)c3cc(C)nc4ccccc34)ccc21 , the value recorded as its melting point is 87.4 to 89.6 °C

Memo: CN(c1ccc2c(ccn2C)c1)c1cc(C#N)nc2ccccc12 , reported melting point: 173.1 to 174.2 °C

Record Cc1cc(N(C)c2ccc3c(c2)c2ccccc2n3C)c2cc([N+](=O)[O-])ccc2n1 . Reported melting point: 207.6 to 212.4 °C

// sample CN(c1ccc2c(c1)c1ccccc1n2C)c1ccnc2ccccc12 , its melting point was 222.2 to 228.4 °C

Just so you know, measured melting point for Cc1cc(N(C)c2ccc3c(c2)c2ccccc2n3Cc2ccccc2)c2ccccc2n1 came out at 192.7 to 196.5 °C
